The following molecules are listed with their measured mass density values.
Details: 303.15 K; 101.33 kPa; Liquid; Vibrating tube method
Numbers after ± are expanded uncertainties.
Write the numeric value and follow it with the unit.

These recorded examples may help you get a feel for the data.
| MOLECULE | REPORTED_METRIC | READOUT_VALUE |
| --- | --- | --- |
| CC(=O)[O-].C[NH+](CCO)CCO [N-methyldiethanolammonium acetate] | mass density | 1132.76 ± 11 kg/m3 |
| CC(=O)[O-].[NH3+]CCO [2-hydroxyethylammonium acetate] | mass density | 1143.39 ± 11 kg/m3 |

Lookup: Report mass density for CC(O)C(=O)O.OCCNCCO [diethanolamine lactate] please.
Found: 1198.77 ± 11 kg/m3

Lookup: Given the entry CC(=O)[O-].OCC[NH2+]CCO [2,2'-azanediylbis(ethanol) acetate] , report its measured mass density.
Found: 1166.39 ± 11 kg/m3

Lookup: Reported mass density for CC(O)C(=O)[O-].[NH3+]CCO (stereo not given) [2-hydroxyethylammonium lactate] : what is it?
Found: 1197.84 ± 11 kg/m3

----------
Settings: 338.2 K; 101.33 kPa; Liquid; Cone and plate viscometry
REPORTED_METRIC: viscosity (mPa·s)
Use mPa·s as the unit, but write only the number.

Lookup: Dear colleague, I am looking for the recorded viscosity of the following compound: CC(=O)[O-].[NH3+]CCO [2-hydroxyethylammonium acetate]
Found: 34.98

Lookup: Quick one: viscosity for CC(O)C(=O)[O-].[NH3+]CCO (stereo not given) [2-hydroxyethylammonium lactate] ?
Found: 31.02

Lookup: Can you look up the measured viscosity of CC(O)C(=O)O.OCCNCCO [diethanolamine lactate] for me?
Found: 33.45

Lookup: What value of viscosity has been recorded for this entry: CC(=O)[O-].C[NH+](CCO)CCO [N-methyldiethanolammonium acetate]
Found: 25.98

Lookup: Quick check: viscosity of CC(=O)[O-].OCC[NH2+]CCO [2,2'-azanediylbis(ethanol) acetate] ?
Found: 48.79

----------
Details: 343.15 K; 101.33 kPa; Liquid; Vibrating tube method
Numbers after ± are expanded uncertainties.
REPORTED_METRIC: mass density

Lookup: May I ask what mass density has been recorded for CC(O)C(=O)O.OCCNCCO [diethanolamine lactate] ?
Found: 1173.25 ± 11 kg/m3

----------
Details: 293.15 K; 101.33 kPa; Liquid; Vibrating tube method
± gives the expanded uncertainty stated by the source.
REPORTED_METRIC: mass density
Returns: string containing the number followed by the unit.

Example cases with answers are listed next.
| MOLECULE | mass density |
| --- | --- |
| CC(O)C(=O)[O-].[NH3+]CCO (stereo not given) [2-hydroxyethylammonium lactate] | 1204.52 ± 11 kg/m3 |
| CC(=O)[O-].C[NH+](CCO)CCO [N-methyldiethanolammonium acetate] | 1141.42 ± 11 kg/m3 |
| CC(O)C(=O)O.OCCNCCO [diethanolamine lactate] | 1206.34 ± 11 kg/m3 |
| CC(=O)[O-].OCC[NH2+]CCO [2,2'-azanediylbis(ethanol) acetate] | 1173.85 ± 11 kg/m3 |

Please turn your attention to the following entry.
Lookup: Would you mind telling me what mass density value was observed for CC(=O)[O-].[NH3+]CCO [2-hydroxyethylammonium acetate] ?
Found: 1148.66 ± 11 kg/m3
